Hey, just so you know, these numbers are from ChEMBL document CHEMBL1140937.

- System: Human immunodeficiency virus type 1 reverse transcriptase (Human immunodeficiency virus 1), Q72547 [K103N]
- Protocol Description: Ratio of Ki for HIV1 recombinant reverse transcriptase p66/p51 K103N mutant at free enzyme state to Ki for HIV1 recombinant reverse transcriptase p66/p51 K103N mutant at enzyme-DNA-dNTP tertiary complex state
Reported values of Ratio Ki for individual entries
Reply with just the number.

CCC1(c2ccc(COc3cccc(Cl)c3)cc2)Oc2ccccc2-n2cccc2C1=O (racemic) ... 50
CC[C@@]1(c2ccc(COc3cccc(Cl)c3)cc2)Oc2cccnc2-n2cccc2C1=O ... 4
CCC1(c2ccc(COc3cccc(Cl)c3)cc2)Oc2cccnc2-n2cccc2C1=O (racemic) ... 6.7

Problem: Note Ratio Ki for the compound shown: `CC[C@@]1(c2ccc(COc3cccc(Cl)c3)cc2)Oc2ccccc2-n2cccc2C1=O`
Solution: 6

---

- Experimental System: Human immunodeficiency virus type 1 reverse transcriptase (Human immunodeficiency virus 1, UniProt Q72547, V179D)
- Protocol Description: Binding affinity to HIV1 recombinant reverse transcriptase p66/p51 V179D mutant at enzyme-DNA-dNTP tertiary complex state
Readout: pKi
Quick note: pKi values are minus log10 of concentrations in mol/L.

Some solved cases for reference:
CCC1(c2ccc(COc3cccc(Cl)c3)cc2)Oc2ccccc2-n2cccc2C1=O (racemic) ... 6.52
CC[C@@]1(c2ccc(COc3cccc(Cl)c3)cc2)Oc2cccnc2-n2cccc2C1=O ... 6.30
CC[C@@]1(c2ccc(COc3cccc(Cl)c3)cc2)Oc2ccccc2-n2cccc2C1=O ... 7.30

Next up:
Problem: Give the value of pKi reported for the following: CCC1(c2ccc(COc3cccc(Cl)c3)cc2)Oc2cccnc2-n2cccc2C1=O (racemic)
Solution: 5.70

---

- Experimental System: Human immunodeficiency virus type 1 reverse transcriptase (Human immunodeficiency virus 1, UniProt Q72547, Y181I)
- Protocol Description: Inhibition of RNA dependent DNA polymerase activity of HIV1 recombinant reverse transcriptase p66/p51 Y181I mutant expressed in Escherichia coli JM109
Readout: Ki

Examples with their reported Ki follow.
CCC1(c2ccc(COc3ccccc3)cc2)Oc2cccnc2-n2cccc2C1=O (racemic) ... < 10 µM
CCC1(c2ccc(COc3cccc(Cl)c3)cc2)Oc2ccccc2-n2cccc2C1=O (racemic) ... < 10 µM

Problem: Fill in reported Ki for this entry: CCC1(c2ccc(COc3cccc(Cl)c3)cc2)Oc2cccnc2-n2cccc2C1=O (racemic)
Solution: < 10 µM

---

- Experimental System: Human immunodeficiency virus type 1 reverse transcriptase (Human immunodeficiency virus 1, UniProt Q72547, K103N)
- Protocol Description: Binding affinity to HIV1 recombinant reverse transcriptase p66/p51 K103N mutant at free enzyme state
- Study Conditions: read-out: Ki
Readout: pKi
Expect pKi as a plain number equal to -log10 of the molar concentration.

Examples with their reported pKi follow.
CC[C@@]1(c2ccc(COc3cccc(Cl)c3)cc2)Oc2cccnc2-n2cccc2C1=O ... 6.70
CC[C@@]1(c2ccc(COc3cccc(Cl)c3)cc2)Oc2ccccc2-n2cccc2C1=O ... 6.52
CCC1(c2ccc(COc3cccc(Cl)c3)cc2)Oc2cccnc2-n2cccc2C1=O (racemic) ... 5.00

# evaluate next
Problem: // fetch pKi given entry CCC1(c2ccc(COc3cccc(Cl)c3)cc2)Oc2ccccc2-n2cccc2C1=O (racemic)
Solution: 5.00

---

- Experimental System: Human immunodeficiency virus type 1 reverse transcriptase (Human immunodeficiency virus 1, UniProt Q72547)
- Protocol Description: Binding affinity to HIV1 recombinant reverse transcriptase p66/p51 at enzyme-DNA-dNTP tertiary complex state
Readout: Ki

Worked examples follow.
CCC1(c2ccc(COc3cccc(Cl)c3)cc2)Oc2ccccc2-n2cccc2C1=O (racemic) ... 100 nM
CCC1(c2ccc(COc3cccc(Cl)c3)cc2)Oc2cccnc2-n2cccc2C1=O (racemic) ... 1100 nM
CC[C@@]1(c2ccc(COc3cccc(Cl)c3)cc2)Oc2cccnc2-n2cccc2C1=O ... 30 nM

Problem: Identify the reported Ki for the following entry. `CC[C@@]1(c2ccc(COc3cccc(Cl)c3)cc2)Oc2ccccc2-n2cccc2C1=O`
Solution: 40 nM

---

Listing of recorded Ki by entry.
- Experimental System: Human immunodeficiency virus type 1 reverse transcriptase (Human immunodeficiency virus 1, UniProt Q72547, L100I)
- Protocol Description: Binding affinity to HIV1 recombinant reverse transcriptase p66/p51 L100I mutant at enzyme-DNA-dNTP tertiary complex state
Please give a number only; it is taken to be in nM.

CC[C@@]1(c2ccc(COc3cccc(Cl)c3)cc2)Oc2ccccc2-n2cccc2C1=O ... 70
CCC1(c2ccc(COc3cccc(Cl)c3)cc2)Oc2ccccc2-n2cccc2C1=O (racemic) ... 200
CC[C@@]1(c2ccc(COc3cccc(Cl)c3)cc2)Oc2cccnc2-n2cccc2C1=O ... 100

With those in mind, consider the next compound.
Problem: Consider the compound CCC1(c2ccc(COc3cccc(Cl)c3)cc2)Oc2cccnc2-n2cccc2C1=O (racemic) and give its recorded Ki.
Solution: 1000

---

- Experimental System: Human immunodeficiency virus type 1 reverse transcriptase (Human immunodeficiency virus 1, UniProt Q72547, L100I)
- Protocol Description: Binding affinity to HIV1 recombinant reverse transcriptase p66/p51 L100I mutant at free enzyme state
- Study Conditions: read-out: Ki
Each entry below carries its reported pKi.
// returns pKi (minus log10 of molar concentration), number only

Some solved cases for reference:
CC[C@@]1(c2ccc(COc3cccc(Cl)c3)cc2)Oc2ccccc2-n2cccc2C1=O ... 6.30
CCC1(c2ccc(COc3cccc(Cl)c3)cc2)Oc2ccccc2-n2cccc2C1=O (racemic) ... 5.60
CC[C@@]1(c2ccc(COc3cccc(Cl)c3)cc2)Oc2cccnc2-n2cccc2C1=O ... 5.70

Kindly consider the entry below.
Problem: Look up and report measured pKi for this entry: CCC1(c2ccc(COc3cccc(Cl)c3)cc2)Oc2cccnc2-n2cccc2C1=O (racemic)
Solution: 4.70

---

- Experimental System: Human immunodeficiency virus type 1 reverse transcriptase (Human immunodeficiency virus 1, UniProt Q72547)
- Protocol Description: Binding affinity to HIV1 recombinant reverse transcriptase p66/p51 at free enzyme state
- Study Conditions: read-out: Ki
pKi listing for selected molecules.
The quantity pKi is defined as the negative base-10 logarithm of the molar concentration.

CCC1(c2ccc(COc3cccc(Cl)c3)cc2)Oc2ccccc2-n2cccc2C1=O (racemic) ... 5.30
CC[C@@]1(c2ccc(COc3cccc(Cl)c3)cc2)Oc2cccnc2-n2cccc2C1=O ... 7.00
CCC1(c2ccc(COc3cccc(Cl)c3)cc2)Oc2cccnc2-n2cccc2C1=O (racemic) ... 5.30

# context switch: different molecule, same pKi
Problem: Fill in pKi for record `CC[C@@]1(c2ccc(COc3cccc(Cl)c3)cc2)Oc2ccccc2-n2cccc2C1=O`
Solution: 6.00

---

- Protocol Description: in vitro
- Study Conditions: human, C8166 cells
- Description: Therapeutic index, ratio of IC50 for HIV1 3B to TC50 for human C8166 cells
Readout: selectivity ratio
// return a plain number; no unit text

// below: answered compounds
CC(C)=CCN1Cc2c(Cl)ccc3[nH]c(=S)n(c23)C[C@@H]1C ... 1670
CCC1(c2ccc(COc3cccc(Cl)c3)cc2)Oc2ccccc2-n2cccc2C1=O (racemic) ... 269

Problem: Look up and state reported selectivity ratio for CCC1(c2ccc(COc3cccc(Cl)c3)cc2)Oc2cccnc2-n2cccc2C1=O (racemic)
Solution: 183

---

- Experimental System: Human immunodeficiency virus type 1 reverse transcriptase (Human immunodeficiency virus 1) (UniProt Q72547)
- Protocol Description: Ratio of Ki for HIV1 recombinant reverse transcriptase p66/p51 at free enzyme state to Ki for HIV1 recombinant reverse transcriptase p66/p51 at enzyme-DNA-dNTP tertiary complex state
Ratio Ki overview
# answer = number (no unit)

Use these answered entries as a reference point.
CC[C@@]1(c2ccc(COc3cccc(Cl)c3)cc2)Oc2ccccc2-n2cccc2C1=O ... 25
CC[C@@]1(c2ccc(COc3cccc(Cl)c3)cc2)Oc2cccnc2-n2cccc2C1=O ... 3.3
CCC1(c2ccc(COc3cccc(Cl)c3)cc2)Oc2ccccc2-n2cccc2C1=O (racemic) ... 50

Problem: Provide measured Ratio Ki value, entry: CCC1(c2ccc(COc3cccc(Cl)c3)cc2)Oc2cccnc2-n2cccc2C1=O (racemic)
Solution: 4.5

---

- Experimental System: Human immunodeficiency virus type 1 reverse transcriptase (Human immunodeficiency virus 1, UniProt Q72547, K103N)
- Protocol Description: Inhibition of RNA dependent DNA polymerase activity of HIV1 recombinant reverse transcriptase p66/p51 K103N mutant expressed in Escherichia coli JM109
Readout: Ki (nM)
Quick note: give the figure in nM, leave out the unit.

For orientation, consider the following solved cases.
CCC1(c2ccc(COc3ccccc3)cc2)Oc2cccnc2-n2cccc2C1=O (racemic) ... 1500
CCC1(c2ccc(COc3cccc(Cl)c3)cc2)Oc2ccccc2-n2cccc2C1=O (racemic) ... 300

Now, please, on to the next compound.
Problem: Please give the documented Ki of CCC1(c2ccc(COc3cccc(Cl)c3)cc2)Oc2cccnc2-n2cccc2C1=O (racemic)
Solution: 800
